# Assay method text: Long-term storage stability of NCA, purity by DSC
# Format: physicochemical
# Measurement conditions: initial value of storage test at 0 to 5° C.; DSC
Measured Purity after purification accompanies every entry in the list below.
Express the result in mol % but write the number alone.

Sample records with Purity after purification:
[
  {
    "Molecule": "O=C1NC(Cc2ccccc2)C(=O)O1 (stereo not shown) [(N)]",
    "Readout unit": "mol %",
    "Purity after purification": 98.88
  },
  {
    "Molecule": "CC(=O)N1CC(=O)OC1=O [(M)]",
    "Readout unit": "mol %",
    "Purity after purification": 99.22
  },
  {
    "Molecule": "COCOCCCC1NC(=O)OC1=O (stereo not shown) [(D)]",
    "Readout unit": "mol %",
    "Purity after purification": 99.00
  },
  {
    "Molecule": "O=C(CCC1NC(=O)OC1=O)OCc1ccccc1 (stereo not shown) [(B)]",
    "Readout unit": "mol %",
    "Purity after purification": 99.40
  },
  {
    "Molecule": "CC(C)(C)OC(=O)CCC1CC(=O)OC1=O (stereo not shown) [(A)]",
    "Readout unit": "mol %",
    "Purity after purification": 98.93
  }
]

// lookup Purity after purification for O=C1CNC(=O)O1 [(J)]
99.10

Same lookup for CC(C)(C)OC(=O)CC1NC(=O)OC1=O (stereo not shown) [(H)] , please.
99.18
